# test-description: qHTS for Inhibitors of the Functional Ribonucleoprotein Complex (vRNP) of Lassa (LASV) Arenavirus: LASV Primary Screen - GLuc reporter signal (AID 1347082); further: nearly all actives have a fitted effect of over 60% in size
# experimental-parameters: LASV minigenome vRNP, Gaussia luciferase reporter; series mostly up to 57.5 µM
Results filed as inconclusive are left out. The source made the active and inactive calls. The call rests on the fitted dose curve; tested in HEK293 reporter line.
measure-name: outcome

compound | measure-name | meas-value
COc1ccc([C@@H]2CNC(=O)C2)cc1OC1CCCC1 | outcome | inactive
Cc1cn([C@@H]2C[C@@H](O)[C@H](CO)O2)c(=O)[nH]c1=O | outcome | inactive
Cn1c2c(c(=O)c3ccccc31)C[C@@H](O)C(C)(C)O2 | outcome | inactive
COc1ccc2c3c1OC1C[C@@H](O)C=C[C@@]31CCN(C)C2 (stereo partly specified) | outcome | inactive
O=C(NC[C@H](O)c1ccccc1)c1ccccc1 | outcome | inactive

Continue with the next compound.
Asked: Can you share its outcome? I mean this compound: `CCCCOC(=O)C(=O)OCCCC`
Given back: inactive
